- method notes: Quantitative High-Throughput drug screen in 47 multiple myeloma cell lines against the NCATS MIPE library collection: NCIH929_DSMZ cell viability assay (AID 1918978); also: nearly all actives have a fitted effect of over 35% in size
- experimental parameters: NCI-H929 myeloma viability, CellTiter-Glo ATP, 48 h; series mostly up to 45.8 µM
Inconclusive results are not listed. The source made the active and inactive calls. Calls follow the shape of the dose curve; as a rule, active = well fitted cell-killing curve with a large enough effect; inconclusive = small, poorly fitted or top-dose-only effect; inactive = no such curve, though single readings can be large or run the other way.
Mark one answer only. Choices: active, inactive

As a guide, the following entries are already answered.
1) CCc1ccc(OCc2ccccc2C(=O)Nc2ccc3nc(C)cc(N)c3c2)cc1
active
2) O=C1c2c(O)cc(O)cc2O[C@H](c2cc(O)c(O)c(O)c2)[C@H]1O
inactive
3) CC(C)(C)Cn1c(N)nc2ccc(-c3[nH]c(C(C)(C)C)nc3-c3ccc(F)cc3)nc21
active

**Query** # lookup: test call for CN(C)Cc1ccc(-c2nc3cccc4c3n2CCNC4=O)cc1
**Result** active

**Query** Per the records of this test, what outcome belongs to N#CC(=C(N)Sc1ccccc1N)C(C#N)=C(N)Sc1ccccc1N ?
**Result** active

**Query** Test call for this compound, please: CC1(C)CCC(CN2CCN(c3ccc(C(=O)NS(=O)(=O)c4ccc(NCC5CCOCC5)c([N+](=O)[O-])c4)c(Oc4cnc5[nH]ccc5c4)c3)CC2)=C(c2ccc(Cl)cc2)C1
**Result** active
